assay: Phase I Part 1: plasma pharmacokinetics after single oral dose; assay type: in vivo, human; settings: human, plasma, oral; single dose 100 mg, geometric mean
QUANTITY_KIND: MRT (h)
Use h as the unit, but write only the number.

Give the measured MRT of "C=CC(=O)N1CCC(CNc2ncnc(N)c2-c2ccc(Oc3ccccc3)cc2)CC1" .
1.7

* * *

test: Phase I Part 2: plasma pharmacokinetics Day 1 and Day 14 of once daily dosing; assay type: in vivo, human; settings: human, plasma, oral, 25 mg, multiple-dose study Day 14, 25 mg once daily, geometric mean
QUANTITY_KIND: MRT (h)
Use h as the unit, but write only the number.

Give the measured MRT of "C=CC(=O)N1CCC(CNc2ncnc(N)c2-c2ccc(Oc3ccccc3)cc2)CC1" .
1.81

* * *

assay: Phase I Part 1: plasma pharmacokinetics after single oral dose; format: in vivo, human; details: human, plasma, oral; single dose 350 mg, geometric mean
QUANTITY_KIND: MRT

Give the measured MRT of "C=CC(=O)N1CCC(CNc2ncnc(N)c2-c2ccc(Oc3ccccc3)cc2)CC1" .
2.26 h

* * *

assay: Phase I Part 1: plasma pharmacokinetics after single oral dose; assay type: in vivo, human; conditions: human, plasma, oral; single dose 200 mg, geometric mean
QUANTITY_KIND: MRT
Could you write the number and then its unit?

Give the measured MRT of "C=CC(=O)N1CCC(CNc2ncnc(N)c2-c2ccc(Oc3ccccc3)cc2)CC1" .
1.8 h

* * *

assay: Phase I Part 2: plasma pharmacokinetics Day 1 and Day 14 of once daily dosing; type: in vivo, human; details: human, plasma, oral, 200 mg, multiple-dose study Day 1, 200 mg, geometric mean
QUANTITY_KIND: MRT (h)
Use h as the unit, but write only the number.

Give the measured MRT of "C=CC(=O)N1CCC(CNc2ncnc(N)c2-c2ccc(Oc3ccccc3)cc2)CC1" .
1.72

* * *

experiment: Phase I Part 2: plasma pharmacokinetics Day 1 and Day 14 of once daily dosing; format: in vivo, human; settings: human, plasma, oral, 25 mg, multiple-dose study Day 1, 25 mg, geometric mean
QUANTITY_KIND: MRT (h)
Use h as the unit, but write only the number.

Give the measured MRT of "C=CC(=O)N1CCC(CNc2ncnc(N)c2-c2ccc(Oc3ccccc3)cc2)CC1" .
1.66

* * *

test: Phase I Part 1: plasma pharmacokinetics after single oral dose; assay type: in vivo, human; settings: human, plasma, oral; single dose 500 mg, geometric mean
QUANTITY_KIND: MRT

Give the measured MRT of C=CC(=O)N1CCC(CNc2ncnc(N)c2-c2ccc(Oc3ccccc3)cc2)CC1 [Evobrutinib] .
2.19 h

* * *

experiment: Phase I Part 2: plasma pharmacokinetics Day 1 and Day 14 of once daily dosing; type: in vivo, human; settings: human, plasma, oral, 200 mg, multiple-dose study Day 14, 200 mg once daily, geometric mean
QUANTITY_KIND: MRT (h)
Use h as the unit, but write only the number.

Give the measured MRT of "C=CC(=O)N1CCC(CNc2ncnc(N)c2-c2ccc(Oc3ccccc3)cc2)CC1" .
1.92
